- Test system: U251 CNS
Permitted responses: 1 (active), 0 (inactive)

Reference set (3 entries):
# COMPOUND, ASSIGNED_LABEL
measured = [
    ("COC(=O)Cc1ccc(Oc2cnc3cc(F)c(F)cc3n2)cc1", 0),
    ("N#CCN/C=C\\C(=O)c1ccc(Cl)cc1", 0),
    ("Cc1cn2c(/C=N/N=C(N)N)c(-c3cccs3)nc2s1", 0),
]

## Input Record lookup: outcome of this test for CCN(CC)CCCC(C)N=C(C1=C(C(=NC(C)CCCN(CC)CC)c2cccc(OC)c2)C(=O)NC1=O)c1cccc(OC)c1 (stereo unspecified) ?
## Output 0

## Input Record lookup: outcome of this test for COc1ccc(/C=N\Nc2ccc([N+](=O)[O-])cn2)cc1OC ?
## Output 0

## Input Record lookup: outcome of this test for CCN(CC)CCCNC(=O)c1c2c(n3ccccc13)C(=O)c1ncccc1C2=O ?
## Output 0

## Input Record lookup: outcome of this test for COc1cc(CNc2ccccc2C(=O)N2CCN(C(=O)c3cc(-c4cc(OC)c(OC)c(OC)c4)n4nc(-c5ccccc5)cc4n3)CC2)cc(OC)c1OC ?
## Output 0

## Input Record lookup: outcome of this test for CNC(=O)Cc1nc(-c2cccc(NS(=O)(=O)c3c(F)cccc3F)c2F)c(-c2ccnc(Nc3ccccc3)n2)s1 ?
## Output 0

## Input Record lookup: outcome of this test for COc1cc(-c2nc(-c3nc4ccccc4[nH]3)cc3c2[nH]c2ccccc23)cc(OC)c1OC ?
## Output 0

## Input Record lookup: outcome of this test for Cn1c2ccc(Br)cc2c2c3c(c4c5ccccc5[nH]c4c21)C(=O)N(O)C3=O ?
## Output 1

## Input Record lookup: outcome of this test for COc1cccc(NC(=O)c2sc3nc4c(cc3c2N)C(=O)CCC4)c1 ?
## Output 1

###

- Test system: RPMI-8226 leukemia
- ASSAY_NAME: NCI tumour cell line growth inhibition, 48 h
PROPERTY_NAME: TGI

Example results:
# MOLECULE, PROPERTY_NAME, READOUT_VALUE
measured = [
    ("N#CCN/C=C\\C(=O)c1ccc(Cl)cc1", "TGI", "> 100 µM"),
    ("O=[N+]([O-])c1ccc(C=NCC2CCCN3CCCCC23)cc1 (stereo not given)", "TGI", "48.1 µM"),
]

Return reported TGI values for all items listed beneath this line.
1. COc1cc2c(=O)cnoc2cc1O
2. C[N+](C)(C)CC(=O)N/N=C(\C(=O)NC1=C(Cl)C(=O)c2ccccc2C1=O)C(C#N)c1csc(-c2ccc([N+](=O)[O-])cc2)n1 (stereo not given)
3. CC(=O)OC[C@@H](OC(C)=O)[C@H](OC(C)=O)[C@@H]1OC(C)(C)O[C@@H]1C1SCCCS1

## Output
1: > 100 µM; 2: > 100 µM; 3: > 100 µM

###

For each of the compounds below, state its TGI.
- Test system: ACHN renal
- ASSAY_NAME: NCI tumour cell line growth inhibition, 48 h

Example results:
# ITEM_SMILES, ASSAYED_TARGET, READOUT_VALUE
rows = [
    ("Cc1c(C(=O)/C=C/c2ccc(N(C)C)cc2)c(=O)n(-c2ccccc2)n1C", "ACHN renal", "> 100 µM"),
    ("CCc1cccc(CC)c1NC(=O)C1=C(C)NC(C)=C(C(=O)Nc2c(CC)cccc2CC)C1c1ccc([N+](=O)[O-])cc1", "ACHN renal", "> 100 µM"),
    ("Cc1nc(N2CCC3(CC2)CO[C@@H](C)[C@H]3N)c(CO)nc1Sc1ccnc(N)c1Cl", "ACHN renal", "> 100 µM"),
]

Attention now turns to another entry.
TGI for CNC(=O)Cc1nc(-c2cccc(NS(=O)(=O)c3c(F)cccc3F)c2F)c(-c2ccnc(Nc3ccccc3)n2)s1 is > 50 µM

###

- Tested on: CCRF-CEM leukemia
- ASSAY_NAME: NCI tumour cell line growth inhibition, 48 h
PROPERTY_NAME: TGI

# MOLECULE, ASSAYED_TARGET, TGI
measured = [
    ("O=C(NCc1cccc2ccccc12)N/N=C\\c1ccc(Cl)cc1", "CCRF-CEM leukemia", "> 100 µM"),
]

Return reported TGI values for all items listed beneath this line.
1. CNC(=O)Cc1nc(-c2cccc(NS(=O)(=O)c3c(F)cccc3F)c2F)c(-c2ccnc(Nc3ccccc3)n2)s1
2. CN/N=C(\C)C(CN(C)C)C(c1ccccc1)c1c(O)c2ccccc2oc1=O (stereo not given)
3. Cc1cc(C)c(NC(=S)NC(=O)c2ccccc2)cc1C
4. CC(=O)N=C1N(/C=C2\C(=O)Oc3ccccc3C2=O)C(=O)/C(=C/c2ccc(Cl)cc2Cl)N1C

## Output
1: > 50 µM; 2: > 100 µM; 3: > 100 µM; 4: > 100 µM

Return reported TGI values for all items listed beneath this line.
1. O=S(=O)(/N=C(\NO)Nc1ccc(Cl)cc1)c1cccc2nsnc12
2. CC(C)C1=CC23CCC4C(C)(C(=O)O)CCCC4(C)C2CC1C1C(=O)N(c2ccccc2)C(=O)C13 (stereo not given)
3. CN(CCNCc1cn(C)c2c1ccc1ccccc12)CCNCc1cn(C)c2c1ccc1ccccc12

## Output
1. 71.9 µM
2. > 100 µM
3. 2.21 µM

Return reported TGI values for all items listed beneath this line.
1. CC(C)(C)C1CCC2c3c([nH]c4ccccc34)C3C(=O)N(c4ccccc4)C(=O)C3C2C1 (stereo not given)
2. FC(F)(F)c1cccc(-c2nc3ccccc3c3c2[C@@]2(N4CCCC4)CCCC[C@@H]32)c1
3. Cc1cc(CC(C)CC(C)(C)C)n(O)c(=O)c1 (stereo not given) (tested in a mixture with another compound)
4. CCOP(=O)(OCC)C(N)c1ccc(Cl)cc1 (stereo not given)

## Output
1. 11 µM
2. 87.9 µM
3. 1.3 µM
4. > 100 µM

Return reported TGI values for all items listed beneath this line.
1. S=C(c1c[nH]c2ccccc12)N1CCN(Cc2ccccc2)CC1
2. O=C1/C(=C\c2ccccn2)c2ccccc2N1c1c(Cl)cccc1Cl
3. O=[N+]([O-])c1cc2c(cc1/C=N/n1c(CO)nc3ccccc31)OCO2
4. Cc1ccc(S(=O)(=O)NNC(=O)c2cc(C)c(C)cc2N)cc1
5. Cn1c2ccc(Br)cc2c2c3c(c4c5ccccc5[nH]c4c21)C(=O)N(O)C3=O
6. Nc1nn2c(nc(N)c3c(N)[nH]nc32)c1N=Nc1ccc(Br)cc1
7. COC(=O)c1cc(O)c2c(c1C(=O)OC)C[C@H]1[C@@H]3CC=C4C[C@@H](O)CC[C@]4(C)[C@H]3CC[C@]21C

## Output
1. > 100 µM
2. > 100 µM
3. > 100 µM
4. > 100 µM
5. 0.956 µM
6. > 100 µM
7. 4.99 µM

TGI for O=C(Cc1ccccc1)Nn1c(-c2ccccc2)nc2ccccc2c1=O is > 100 µM

###

- Tested on: T-47D breast
- ASSAY_NAME: NCI tumour cell line growth inhibition, 48 h
For each of the compounds below, state its TGI.

Example results:
# COMPOUND, ASSAYED_TARGET, READOUT_VALUE
rows = [
    ("O=c1[nH]nc(Cc2ccccc2)n1CCO", "T-47D breast", "> 100 µM"),
    ("N#Cc1c(-c2ccccc2)c(N=Nc2ccc(Cl)cc2)c(=O)n2c1[nH]c1ccccc12", "T-47D breast", "> 100 µM"),
    ("CCCCON1C[C@H](OC(C)=O)C(OC(C)=O)[C@H](OC(C)=O)C1 (stereo not given in full)", "T-47D breast", "> 100 µM"),
    ("CCN(CC)CCCNC(=O)c1c2c(n3ccccc13)C(=O)c1ncccc1C2=O", "T-47D breast", "3.61 µM"),
]

Attention now turns to another entry.
TGI for COc1ccc(-c2c3c(n(C4OC(COC(C)=O)C(OC(C)=O)C(OC(C)=O)C4OC(C)=O)c(=S)c2C#N)CC(C)(C)CC3=O)cc1 (stereo not given) is > 100 µM

###

For each of the molecules below, state its GI50.
- Test system: HCC-2998 colon
- ASSAY_NAME: NCI tumour cell line growth inhibition, 48 h

Example results:
# MOLECULE, GI50
data = [
    ("CCOC(=O)CC1C(COC(=O)NC)OC(n2cnc3c(NC(=O)Nc4ccccc4)ncnc32)C1O[Si](C)(C)C(C)(C)C (centres undefined)", "8760 nM"),
    ("O=C(/C=C/c1ccccc1)n1c(-c2ccc(Cl)cc2)nc2ccccc21", "1800 nM"),
    ("COC(=O)c1cc(O)c2c(c1C(=O)OC)C[C@H]1[C@@H]3CC=C4C[C@@H](O)CC[C@]4(C)[C@H]3CC[C@]21C", "3740 nM"),
]

Attention now turns to another entry.
GI50 for COc1ccccc1CNCCCN1C(=O)c2ccc3c4c(ccc(c24)C1=O)C(=O)N(CCCCNCCCN)C3=O is 1120 nM
